Reference source for all entries: ChEMBL document CHEMBL3507680

Record form. Attribute: cytotoxicity at 70.5 h. Fill in for each entry.
test: Human HepG2 cell viability assay in 384 well format
Format: toxicity, cell-based
Set-up: dose 125 nL, time 70.5 hour; concentration not given beside the values
condition-set: HepG2 cells, read-out: Inhibition
# include the unit after the value

Data request: Return reported cytotoxicity at 70.5 h; argument: COCCN1CCN(C(=O)c2ccncc2F)Cc2cccnc21
Data returned: -12.3%

Data request: Also O=C(CCn1ccc2cc(Br)ccc21)NCc1ccc(C(=O)O)cc1 ?
Data returned: -5.77%

Data request: Also, CC1c2ncc(CN3CCN(C)CC3)n2CCN1Cc1ccsc1 (configuration not stated) please.
Data returned: -0.917%

Data request: Then what about the compound Cc1cccc(NCc2nn(C)c(=O)[nH]2)c1 ?
Data returned: -11%

Data request: Query Cn1c(C(=O)NS(C)(=O)=O)ccc1-c1ccccc1 next
Data returned: -6.29%

Data request: Same thing, different compound: CN(C(=O)NCCN1CCOCC1)C1CCN(c2ccccc2)C1=O (configuration not stated)
Data returned: -14.1%

Data request: CCn1c(C2CCN(C(=O)c3ccc4cc[nH]c4c3)CC2)n[nH]c1=O , same question.
Data returned: 9.25%

Data request: Cc1ccc(CN2CC(O)CN(C(=O)OCC(C)C)CC2=O)cc1 (configuration not stated) ?
Data returned: -4.78%

Data request: Input COc1ccc(NS(=O)(=O)CC2=NC(=O)n3cccc3C2=O)cc1Cl
Data returned: -8.91%

Data request: Cn1cc(C(=O)OC2CN(c3nc4c(C(F)(F)F)cccc4s3)C2)nn1 ?
Data returned: 1.02%

Data request: What do you have for CCC1CN(CC(=O)N2CCC2)CCN1CCOC (configuration not stated) ?
Data returned: -2.85%

Data request: Then CCOc1ccc(NC(=O)c2ccc(C#N)cc2C)cc1CO ?
Data returned: -1.73%

* * *

test: Human HepG2 cell viability assay in 384 well format
Format: toxicity, cell-based
Design: dose 125 nL, time 70.5 hour; concentration not given beside the values
condition-set: HepG2 cells, read-out: Inhibition
observable: cytotoxicity at 70.5 h (%)
Enter your answer as a number in %; do not include the unit.

Data request: If you can, please state the reported cytotoxicity at 70.5 h value of CCN(CC)c1ncnc2c1CCN(c1ccc(C)nn1)CC2 .
Data returned: -1.7

Data request: Do the same for COCCOc1ncccc1C(=O)N1CCCC(n2ccnc2C)C1 (configuration not stated) please
Data returned: -13.5

Data request: Then what about the compound CN1CCN(CCCNC(=O)C2CCCCC2)CC1 ?
Data returned: 12.1

Data request: Follow-up item: O=c1cc(Cn2cncn2)nc2n1CCCN(CC1CCOCC1)C2
Data returned: -3.57

Data request: Can you check Cc1nn(C)c2cnn(CC(=O)NCc3ccc4c(c3)OCO4)c12 next?
Data returned: -3.63

Data request: Queued: Cc1nn(C)cc1CN1C[C@@H]2CC[C@H](C1)N(Cc1c(C)noc1C)C2=O
Data returned: 32.1

Data request: CC1COCCN1C(=O)Cc1cc(Cl)c2c(c1)OCCCO2 (configuration not stated) ?
Data returned: -14.3

Data request: Cool, now Oc1cc(CCC2CCCCN2)cc(-c2ccncc2)c1 (configuration not stated)
Data returned: 17.4

Data request: Another compound to look at: CNc1cc2c(nn1)CCN(C(=O)c1cc(F)cc(F)c1)C2
Data returned: -10

Data request: Repeat with CC(NC(=O)c1cccs1)C(=O)NCc1ccccc1CN1CCCC1 (configuration not stated)
Data returned: -2

Data request: Same question for CC(NC(=O)N1CCN(c2ccccc2O)CC1)c1nncn1C (configuration not stated) please.
Data returned: 1.59

Data request: # iterate: Cc1ccc(-c2nc(CN3CCOC(Cn4cncn4)C3)cs2)o1 (configuration not stated)
Data returned: -6.85

Data request: What do we get for COCCC1(CNC(=O)NCC2CCCN(C)C2)CCC1 (configuration not stated) ?
Data returned: -12

Data request: Quick one: CNC(=O)NCC(=O)N1CCCC1Cc1cccc(F)c1 (configuration not stated)
Data returned: 2.87

Data request: # iterate: O=C(NCc1cccnc1)N[C@H]1CC[C@@]2(CCC(=O)N2CC2CC2)CC1
Data returned: 8.65

Data request: Also CN(Cc1ccco1)C1CCC12CCN(C(=O)c1ccnnc1)CC2 (configuration not stated) ?
Data returned: 5.1

Data request: Entry C=C(C)COc1ccccc1NC(=O)N1CCCCC1CO (configuration not stated) please
Data returned: 4.81

Data request: Same for COc1ccc(CN(C)C(=O)CCc2c(C)nc(C)[nH]c2=O)cc1OC
Data returned: -7.96

Data request: Do the same for Cc1ccc2[nH]c([C@H]3CCN(CC4CCCCC4)C3)nc2c1 please
Data returned: 5.77

Data request: For CN1[C@@H](c2ccccc2)[C@@H](C(=O)NCc2ccncc2)C[C@@]1(C)C(=O)O then?
Data returned: -22.3

Data request: Moving on to CCc1cc(N[C@@H]2CC[C@@H](N)C2)n2nc(C)c(C)c2n1
Data returned: -7.75

Data request: Then Cc1nc(C)n(CC2CCCN2Cc2nc(-c3cccs3)no2)n1 (configuration not stated) ?
Data returned: -12.2

Data request: Do the same for Cc1ccc(NC(=O)Cn2ncc(SCC(N)=O)c(Cl)c2=O)cc1 please
Data returned: -7.72

Data request: And for CN(C)C(=O)NCc1cc2n(n1)CCCN(C[C@H]1[C@@H]3CNC[C@@H]31)C2 ?
Data returned: -0.846

Data request: // repeat for CCC(C)(NCC(=O)NC(C)C)c1nc(C)cs1 (configuration not stated) and report
Data returned: -3.79

Data request: And the next one, Cc1csc(N2CCN(C(=O)Cc3cccs3)CC2)n1 ?
Data returned: -2.84

Data request: Here is the next compound: c1ccc(CN2CCC3(CC2)Nc2ccccc2CO3)cc1
Data returned: -6.59

Data request: Check Cc1ccc(-c2ccc(C(=O)NCCC(=O)N(C)C)c(F)c2)cc1 too.
Data returned: -6.22

Data request: Next compound up: Cc1nc([C@@H]2C[C@@H]3CCN(Cc4cnn(C)c4)C[C@H]3O2)sc1C
Data returned: -5.41

Data request: Also, CC(C)Oc1cc(N2CCC(C(N)=O)CC2)nc(N)n1 please.
Data returned: -3.58

Data request: Next up: O=C(C1CC1)N1CCC[C@]2(C[C@@H](OCc3ccncc3)CO2)C1
Data returned: 0.889

Data request: What do you have for O=C1COc2cc(OC[C@@H]3CCCN4CCCC[C@H]34)ccc21 ?
Data returned: 14.3

Data request: Follow-up item: c1cnnc(-c2noc(CCN3CCCO3)n2)c1
Data returned: -10.9

Data request: Query Cc1cccc(-c2nc(C)nn2CC(=O)N(C)C2CC2)c1 next
Data returned: -5.01

Data request: Next: CCC(=O)N1CCC2(CC1)C(=O)N(Cc1cccnc1)CCN2C
Data returned: -3.61

Data request: What about O=C(NCc1ccc(Cl)cc1)[C@@H]1Cc2[nH]cnc2CN1CC1CC1 ?
Data returned: -6.64

Data request: Also, CCS(=O)(=O)N[C@H]1CN(Cc2noc(COC)n2)C[C@@H]1C1CC1 please.
Data returned: -8.57

Data request: Try CSc1ccc(CNC(c2ccc(F)cc2)c2nccn2C)cc1 (configuration not stated) next.
Data returned: 0.212

Data request: What do you get for Cc1noc(C)c1-c1ccc(C2CCCN2C(=O)c2cnn(C)c2)nc1 (configuration not stated) ?
Data returned: -0.651

Data request: Note, next up: CC/N=c1/c(NC(=O)NCCOC)c(O)oc2ccccc12
Data returned: 30.4

Data request: Now consider CC(=O)Nc1nc(C(=O)Nc2ccc(N3CCCCC3)nc2)cs1 and answer again.
Data returned: 13.7

Data request: Next up: CC(C)(C)Cc1nnc(NCc2cccc(C#N)c2)o1
Data returned: -1.69

Data request: Moving on to the next compound: CN(CCc1ccccn1)c1cnn(C)c(=O)c1Br
Data returned: -11.5

Data request: Further, for CN(CCN1CCOC1=O)CC(=O)Nc1ccc(Cl)c(C(F)(F)F)c1 ?
Data returned: -22

Data request: // query: Cc1ncc2c(n1)CN(CCCc1ccccc1)CC2
Data returned: 0.152

Data request: Same thing, different compound: O=C(CCC1CCCO1)NCCCO (configuration not stated)
Data returned: -18.3

Data request: Again, but for CN(Cc1nncn1-c1cccc(C(F)(F)F)c1)S(C)(=O)=O
Data returned: 7.25

* * *

test: Human HepG2 cell viability assay in 384 well format
Format: toxicity, cell-based
Set-up: dose 125 nL, time 70.5 hour; concentration not given beside the values
condition-set: HepG2 cells, read-out: Inhibition
I'd appreciate it if you could supply cytotoxicity at 70.5 h values for the items below.

Data request: Look up cytotoxicity at 70.5 h for this compound: CC(=O)NCCc1ccc(S(=O)(=O)Nc2ccc(C)c(F)c2)s1
Data returned: -5.64%

Data request: Note, next up: CSc1cccc(CNC(=O)C2CC(=O)N(C3CC3)C2)c1 (stereo not drawn)
Data returned: -1.83%

Data request: And then O=C(O)c1ccc(S(=O)(=O)Nc2ccccc2F)c(F)c1 , what is it?
Data returned: -11%

Data request: Input CC[C@@]1(O)CCN(C(=O)c2ccsc2)C[C@H]1O
Data returned: -7.08%

Data request: Follow-up entry: Cn1ccnc1C(=O)NCc1cnc2n1CCN(CC1CC1)CC2
Data returned: -0.996%

Data request: And the next one, O=C(CCc1ccsc1)NCc1ccnc(OC2CCOCC2)c1 ?
Data returned: -5.9%

Data request: Record: COc1c(C2CCCN2C(=O)c2cnc[nH]2)c(C)nn1C (stereo not drawn)
Data returned: -2.57%

Data request: Moving on to CCOC(=O)N1CCC(NC(=O)Nc2cccnc2OCC)CC1
Data returned: 6.34%

Data request: Follow-up entry: CCOc1ccc(N(CCC#N)C(=O)c2ccc(OC)nc2)cc1
Data returned: 1.85%

Data request: Entry to check: CCOCCNC(=O)Nc1ccc(OCc2noc(C3CC3)n2)cc1
Data returned: -7.9%

Data request: Request: CN(Cc1cc(Br)cs1)Cc1nnsc1Cl
Data returned: -8.26%

Data request: Also COc1ccc2c(c1)C(NCCc1ncc(C)s1)CCCO2 (stereo not drawn) ?
Data returned: -7.84%

Data request: And CN(Cc1cccnc1)CC1CN(C(N)=O)Cc2nccn2C1 (stereo not drawn) ?
Data returned: -2.38%

Data request: Repeat with CNc1ncccc1C(=O)N1CCC2(CCN(C)C2)CC1
Data returned: 2.78%

Data request: Please do the same for Cc1nn(C)c2c(NCc3ccccc3F)nc(C3CC3)nc12 as well.
Data returned: -5.5%

Data request: Next: CC(C)N1CCCC(Cc2nccnc2Cl)C1 (stereo not drawn)
Data returned: -4.45%

Data request: # iterate: CN(Cc1cn2c(n1)CN(C(=O)N(C)C)CC2)Cc1ccco1
Data returned: -5.21%

Data request: Request: Cc1cc(NC(=O)c2ccc(F)cc2F)n(C)n1
Data returned: -10.6%

Data request: Cc1cccc(COC[C@H]2CC[C@H]3[C@H](CCN3Cc3ccco3)O2)n1 , same question.
Data returned: -4.41%

Data request: Same question, O=C(NCCc1nc2ccccc2s1)c1coc(CN2CCOCC2)c1 this time
Data returned: 5.71%

Data request: Now the same for CN1CCC(c2cccc(Cc3ccccc3)n2)CC1
Data returned: 3.18%

Data request: Moving on to CC(C)N(Cc1ccccc1)C(=O)NCCNC(=O)c1cccnc1
Data returned: -13.6%

Data request: Also check CC(C)CS(=O)(=O)N1C[C@H]2C[C@H](C(=O)NCc3ccccc3)[C@@H](C1)O2
Data returned: -7.71%

Data request: Please do the same for COCCC(Cc1cccc(Br)c1)C(=O)N(C)C (stereo not drawn) as well.
Data returned: -0.534%

Data request: Now the same for Cc1ccccc1CN1CC[C@H](c2nnc(-c3cncn3C)o2)C1
Data returned: 1.18%

Data request: Check Cc1cccc(C(C(=O)NCC2(Cn3nc(C)cc3C)CC2)N(C)C)c1 (stereo not drawn) too.
Data returned: -2.42%

Data request: Can you handle CC(C)CCC(=O)N1CC[C@@H]2[C@H](CC1)N(S(C)(=O)=O)CCS2(=O)=O next?
Data returned: -10.2%

Data request: Item: CNc1ncc(CN(C)c2ncnc3onc(C)c23)cn1
Data returned: 8.52%

Data request: Cool, now CC(=O)N1CCC2(CC1)CN(C)CC[C@H]2C(F)(F)F
Data returned: -4.42%

Data request: c1cc(CN2CCC(c3ccc4c(c3)OCO4)CC2)ccn1 , same question.
Data returned: -1.06%

Data request: Queued: Cc1cc2c(=O)n3c(nc2s1)CCN(C(=O)c1scnc1C)CC3
Data returned: -12.5%

Data request: Ok, now CCOc1ccc(CCCC(=O)N2CC[C@H](NC(C)=O)C2)cc1C
Data returned: -12.4%

Data request: // same read-out, input: CC(NC1CCN(CCc2ccncc2)CC1)c1cnn(C(C)C)c1 (stereo not drawn)
Data returned: -18%

Data request: Next up: CC(=O)N1N=C(c2ccncc2)OC1C(=O)N(C)CCc1ccccc1 (stereo not drawn)
Data returned: 4.98%

Data request: Next record, please: COC[C@@]12CCO[C@@H]1CCN(Cc1ccc(C)s1)C2
Data returned: 15.9%

Data request: One more compound: O=C(Cc1c(F)cccc1F)N1CCN(CC(=O)N2CCCC2)CC1
Data returned: -5.05%

Data request: How about O=C(Cc1cccc(F)c1)NCCNCc1cccc(O)c1 ?
Data returned: 0.873%

Data request: What do you get for CCN(CC)[C@@H]1CN(C(=O)c2ccnnc2)[C@@H]2CCCO[C@H]12 ?
Data returned: -8.7%

Data request: Same question for CNC(=O)CN1CCC(NC(=O)Cn2cc(C)c3ccccc32)CC1 please.
Data returned: 0.492%

Data request: And the next one, O=C(NCCO)Nc1ccc(Cl)cc1-n1cccc1 ?
Data returned: 0.77%

Data request: Another compound to look at: COCc1noc(Cc2c(C)nn(C)c2C)n1
Data returned: -2.81%

Data request: Next compound: CC(C#N)CN(C)Cc1ccc(Cl)c2cccnc12 (stereo not drawn)
Data returned: -3.13%

Data request: Another compound to check: O=C(NCc1ccccc1CN1CCOCC1)c1ccc(Br)cc1F
Data returned: 2.01%

Data request: Now this one: CCC(NC(=O)c1ccco1)c1ccccc1OCC(=O)N1CCCC1 (stereo not drawn)
Data returned: -6.16%

Data request: Cool, now Cn1cc(CCC(=O)N2CCCN(c3ncccc3C#N)CC2)cn1
Data returned: 35.5%

Data request: Now consider O=C(N[C@@H]1CCN(c2nccc3ccccc23)C[C@H]1O)c1cnccn1 .
Data returned: 9.52%

Data request: # repeat for CC(=O)N1CCC(N2CC(Cc3nccc4ccn(C)c34)C2)CC1
Data returned: -6.03%

Data request: Also need CCOCCN1CCC(c2cncc(C)n2)CC1 , thanks.
Data returned: -1.63%
